Molecular target: human ACC2 (Homo sapiens (Human), UniProt O00763)
Sequence (O00763 129-2458): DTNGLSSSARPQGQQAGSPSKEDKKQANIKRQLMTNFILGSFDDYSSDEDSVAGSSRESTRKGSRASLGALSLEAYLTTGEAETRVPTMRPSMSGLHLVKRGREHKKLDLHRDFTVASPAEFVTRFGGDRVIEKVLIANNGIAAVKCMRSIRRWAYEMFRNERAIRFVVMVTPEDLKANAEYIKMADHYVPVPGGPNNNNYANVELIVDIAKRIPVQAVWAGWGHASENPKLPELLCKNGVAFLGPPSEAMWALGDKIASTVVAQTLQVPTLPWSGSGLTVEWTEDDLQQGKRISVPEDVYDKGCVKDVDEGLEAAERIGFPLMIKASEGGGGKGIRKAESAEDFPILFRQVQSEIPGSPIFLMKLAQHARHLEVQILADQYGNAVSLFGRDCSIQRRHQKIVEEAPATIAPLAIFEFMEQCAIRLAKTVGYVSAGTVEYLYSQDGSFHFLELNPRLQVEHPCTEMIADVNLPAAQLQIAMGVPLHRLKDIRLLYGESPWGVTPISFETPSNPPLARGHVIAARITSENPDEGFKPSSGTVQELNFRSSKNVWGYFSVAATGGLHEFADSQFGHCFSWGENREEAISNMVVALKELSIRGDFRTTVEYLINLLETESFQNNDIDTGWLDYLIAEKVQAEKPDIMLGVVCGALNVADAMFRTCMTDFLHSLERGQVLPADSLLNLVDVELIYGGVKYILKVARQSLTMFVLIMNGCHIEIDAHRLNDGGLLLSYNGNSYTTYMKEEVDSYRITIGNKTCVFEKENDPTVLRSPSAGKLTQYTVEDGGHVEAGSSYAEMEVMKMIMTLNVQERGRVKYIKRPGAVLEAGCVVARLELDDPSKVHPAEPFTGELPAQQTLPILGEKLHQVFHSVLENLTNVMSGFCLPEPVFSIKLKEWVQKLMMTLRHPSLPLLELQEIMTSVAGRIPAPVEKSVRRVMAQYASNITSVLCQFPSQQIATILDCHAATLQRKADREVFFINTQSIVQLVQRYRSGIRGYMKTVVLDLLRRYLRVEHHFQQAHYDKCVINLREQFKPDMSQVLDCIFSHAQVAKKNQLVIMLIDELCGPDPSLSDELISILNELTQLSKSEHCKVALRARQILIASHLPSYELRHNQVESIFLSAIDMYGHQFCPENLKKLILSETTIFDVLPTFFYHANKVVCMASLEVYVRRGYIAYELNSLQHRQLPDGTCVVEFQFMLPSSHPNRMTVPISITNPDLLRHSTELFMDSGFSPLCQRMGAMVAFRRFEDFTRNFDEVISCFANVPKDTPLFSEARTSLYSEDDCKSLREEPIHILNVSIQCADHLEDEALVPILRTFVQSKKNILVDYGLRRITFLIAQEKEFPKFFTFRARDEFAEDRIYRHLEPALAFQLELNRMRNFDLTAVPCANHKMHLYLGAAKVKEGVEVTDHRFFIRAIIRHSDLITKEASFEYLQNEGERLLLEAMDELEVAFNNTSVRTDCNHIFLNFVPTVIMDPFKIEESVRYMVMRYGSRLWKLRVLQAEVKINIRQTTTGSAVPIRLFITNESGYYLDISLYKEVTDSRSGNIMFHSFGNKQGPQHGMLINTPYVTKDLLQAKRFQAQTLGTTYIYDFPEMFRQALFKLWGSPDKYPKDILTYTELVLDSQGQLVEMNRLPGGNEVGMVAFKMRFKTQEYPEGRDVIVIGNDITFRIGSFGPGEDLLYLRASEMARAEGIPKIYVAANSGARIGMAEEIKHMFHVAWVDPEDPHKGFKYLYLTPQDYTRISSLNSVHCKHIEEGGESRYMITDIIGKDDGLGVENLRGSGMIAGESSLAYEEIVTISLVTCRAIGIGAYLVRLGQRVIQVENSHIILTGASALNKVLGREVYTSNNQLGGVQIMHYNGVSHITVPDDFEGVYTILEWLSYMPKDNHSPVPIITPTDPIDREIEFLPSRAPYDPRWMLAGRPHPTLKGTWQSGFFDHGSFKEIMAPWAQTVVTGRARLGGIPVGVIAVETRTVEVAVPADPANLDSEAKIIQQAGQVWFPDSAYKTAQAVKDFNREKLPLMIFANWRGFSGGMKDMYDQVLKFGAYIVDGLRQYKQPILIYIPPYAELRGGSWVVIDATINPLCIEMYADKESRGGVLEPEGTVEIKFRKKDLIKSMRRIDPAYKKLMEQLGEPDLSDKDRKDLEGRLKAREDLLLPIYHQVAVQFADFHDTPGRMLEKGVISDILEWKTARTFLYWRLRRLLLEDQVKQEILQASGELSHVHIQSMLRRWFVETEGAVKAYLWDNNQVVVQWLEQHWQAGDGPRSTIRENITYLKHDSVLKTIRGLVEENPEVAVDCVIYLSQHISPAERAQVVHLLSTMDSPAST
pIC50: −log10 of the molar value.
Given measured pIC50, output yes if it is greater than or equal to 7 and no if not.

CC(=O)N[C@@H](C)c1ccc(O[C@@H]2CCN(c3ccnc(NCC4CC4)c3F)C2)cc1 = yes
CC#CCOc1cc(N2CC[C@@H](Oc3ccc([C@H](C)NC(C)=O)cc3)C2)ccn1 = no
C[C@H](NC(=O)C1CC1)c1ccc(O[C@@H]2CCN(c3ccnc(OCC4CC4(F)F)c3)C2)cc1 (stereo partly shown) = no
COC(C)(C)COc1nccc(N2CC[C@@H](Oc3ccc([C@H](C)NC(C)=O)cc3)C2)c1F = no
COCC(=O)Nc1nc(C)c(C(=O)N[C@@H](C)c2ccc(OC3CCN(c4ccc(OCC5CC5(F)F)cn4)C3)cc2)s1 (stereo partly shown) = yes

# next compound below
Entry CCCOc1ccnc(N2CC[C@@H](Oc3ccc([C@H](C)NC(C)=O)cc3)C2)c1F : is its pIC50 no less than 7?
no

* * *

Target: human ACC2 (Homo sapiens (Human), UniProt O00763)
Test: ACC2 assay, spectrophotometric 384 well assay (NADH-linked kinetic method)
Type: biochemical
Settings: human ACC2 construct lacking the 128 N-terminal amino acids; coupled lactate dehydrogenase/pyruvate kinase reaction, 340 nm, 25° C.
# Lookup of reported IC50 keyed by entry
Respond numerically; units are nM and should not be typed.

The examples below pair each entry with its known result.
CCCN(C)c1cccc(N2CC[C@@H](Oc3ccc([C@H](C)NC(C)=O)cc3)C2)n1 [Example 10.5] = 182
CC(=O)N[C@@H](C)c1ccc(O[C@@H]2CCN(c3ccnc(OCc4ccc(F)cc4)c3)C2)cc1 [Example 9.6] = 90
CCNc1cccc(N2CC[C@@H](Oc3ccc([C@H](C)NC(C)=O)cc3)C2)n1 [Example 10.12] = 691
CC(=O)N[C@@H](C)c1ccc(OC2CCN(c3ccc(OC4CCC4)nc3)C2)cc1 (stereo partly shown) [Example 1.21] = 335
C[C@H](NC(=O)Nc1ccon1)c1ccc(O[C@@H]2CCN(c3ccc(OCC4CC4(F)F)cn3)C2)cc1 (stereo partly shown) [Example 3.1] = 81
CC(=O)Nc1nc(C)c(C(=O)N[C@@H](C)c2ccc(O[C@@H]3CCN(c4cccc(C(F)(F)F)n4)C3)cc2)s1 [Example 1.45] = 64

# input compound: Cc1cc(CC(=O)N[C@@H](C)c2ccc(OC3CCN(c4ccnc(OCC5CC5)c4)C3)cc2)on1 (stereo partly shown) [Example 2.87] ; wanted: its IC50
270

* * *

Molecular target: UniProt O00763
Assay: ACC2 assay, spectrophotometric 384 well assay (NADH-linked kinetic method)
Assay type: biochemical
Conditions: human ACC2 construct lacking the 128 N-terminal amino acids; coupled lactate dehydrogenase/pyruvate kinase reaction, 340 nm, 25° C.
# Lookup of reported IC50 keyed by entry
Put your answer as a value accompanied by its unit after it.

C[C@H](NC(=O)C1CC1)c1ccc(OC2CCN(c3ccc(OC[C@H]4CC4(F)F)cn3)C2)cc1 (stereo partly shown) [Example 2.94] = 84 nM
CC(=O)N[C@@H](C)c1ccc(O[C@@H]2CCN(c3ccnc(OCC4CC4(F)F)c3Cl)C2)cc1 (stereo partly shown) [Example 9.71] = 45 nM
CC(=O)N[C@@H](C)c1ccc(O[C@@H]2CCN(c3ccnc(N(C)C4CCCC4)c3)C2)cc1 [Example 10.9] = 849 nM

# input molecule: CCN(C)c1ccnc(N2CC[C@@H](Oc3ccc([C@H](C)NC(C)=O)cc3)C2)c1F [Example 1.97] ; wanted: its IC50
970 nM

# input molecule: CC(=O)N[C@@H](C)c1ccc(O[C@@H]2CCN(c3ccnc(O[C@H]4CCOC4)c3)C2)cc1 [Example 9.25] ; wanted: its IC50
572 nM

# input molecule: C[C@H](NC(=O)N(C)C)c1ccc(OC2CCN(c3cccc(C(F)(F)F)n3)C2)cc1 (stereo partly shown) [Example 5.2] ; wanted: its IC50
90 nM

# input molecule: CO[C@@H](C)COc1cc(N2CC[C@@H](Oc3ccc([C@H](C)NC(C)=O)cc3)C2)ccn1 [Example 9.44] ; wanted: its IC50
639 nM
